system: CCRF-CEM leukemia; assay: NCI tumour cell line growth inhibition, 48 h
property.name: TGI

What value of TGI has been reported for the following molecule? `c1ccc2c(c1)ccc1c3ccccc3ccc21`
> 50 µM

Please answer likewise for `c1ccc(-c2nc3ccccc3n3nnnc23)cc1`
> 100 µM

Please answer likewise for C[C@@]12CCC[C@@](C)(C(=O)O)C1CC[C@@]13CC(=O)[C@@](CO)(CCC12)C3 (some centres undefined)
> 100 µM

Please answer likewise for `Cc1cccc(N2C(=O)C(=O)C(c3nc4ccccc4s3)C(=O)C2=O)c1C`
> 100 µM

Please answer likewise for `Cc1csc2n(C)c(=O)c3ccccc3[n+]12`
> 100 µM

Please answer likewise for CSc1nc(=O)c(C#N)c(-c2ccccc2)n1C1OC(COC(C)=O)C(OC(C)=O)C(OC(C)=O)C1OC(C)=O (centres undefined)
> 100 µM

Please answer likewise for `C=C(COC(=O)C(C)C)[C@H]1Oc2ccc(C(C)=O)cc2[C@@H]1OC(=O)C(C)C`
> 100 µM

Please answer likewise for `CCOC(=O)CN(Cc1ccccc1)Cc1c(C(=O)c2ccccc2)c2ccccc2n1C(=O)c1ccccc1`
> 100 µM

Please answer likewise for C=C1[C@H](OCC(C)C)[C@@H](OC(=O)C(C)CC)[C@@H](O)C(C)(C)/C=C/[C@H](C)C(=O)[C@@]2(O)C[C@H](C)[C@H](O)[C@@H]2[C@H]1OC(=O)C(C)CC (some centres undefined)
> 9.76 µM

Please answer likewise for `Cc1ccc(CC(=O)Nc2ccc(NC(=O)CNC(=O)/C=C/c3ccc(-c4ccccc4)cc3)cc2C(=O)c2ccccc2)cc1`
17.1 µM

Please answer likewise for `CCN1CCCCC(=N\O)/C(=N/O)CCCC1`
> 100 µM

Please answer likewise for `CC(C)(CCC(C)(C)c1ccccc1)c1ccccc1`
39.9 µM

Please answer likewise for `O=c1c(S(=O)(=O)Oc2ccccc2)coc2cc(F)ccc12`
> 100 µM

Please answer likewise for `Oc1ccc(-c2nc3ccc4[nH]ncc4c3c3c2CCCC3)c2cccnc12`
11.8 µM

Please answer likewise for `CN1CCN(c2cc(Nc3cc(C4CC4)[nH]n3)nc(Nc3ccc(CC(=O)NCc4cccc(F)c4)cc3)n2)CC1`
7.49 µM

Please answer likewise for COC1=CCC2=C(CCN(C(=O)C3CCC3)C2Cc2ccc(OC)c(O)c2)C1 (centres undefined)
> 100 µM

Please answer likewise for `O=c1c2cccnc2ncn1CCCN1CCOCC1`
> 100 µM

Please answer likewise for COC(=O)C(N)CCCC(N)C(=O)NC(C)C(=O)NC(CCC(=O)NCCCNc1ccc([N+](=O)[O-])c2[nH]c3ccccc3c(=O)c12)C(N)=O (centres undefined)
14.3 µM

Please answer likewise for `COc1ccc(-c2nn(-c3cccc(NC(=O)Nc4cccc(C(F)(F)F)c4)c3)cc2-c2ccncc2)cc1Cl`
7.59 µM

* * *

test system: SF-295 CNS; assay: NCI tumour cell line growth inhibition, 48 h
Give TGI for every item shown.

What value of TGI has been reported for the following compound? O=C(NC(CO)CO)c1ccc2cc(C(=O)N3CC(CCl)c4ccc([N+](=O)[O-])cc43)[nH]c2c1 (stereo not given)
> 100 µM

Please answer likewise for `COc1ccc(-c2[nH]ncc2-c2cc(OC)c(OC)c(OC)c2)cc1`
< 0.01 µM

Please answer likewise for `Cn1c(=O)c2[nH]c(-n3nc(-c4ccccc4)cc3N)nc2n(C)c1=O`
> 100 µM

Please answer likewise for `Cc1ccc(Nc2nc(NS(=O)(=O)c3cc(C)c(Cl)cc3S)n[nH]2)cc1`
> 100 µM

Please answer likewise for `CC1=N/C(=C\c2cccc3ccccc23)C(=O)O1`
> 100 µM

Please answer likewise for `COc1ccc(/C=C/C(C(=O)O)C(=O)O)cc1`
> 100 µM

Please answer likewise for `Cc1nc2sccn2c1C(=O)OCCOCCOCCOCCOC(=O)c1c(C)nc2sccn12`
> 100 µM

Please answer likewise for COc1cc(-c2coc3c(OC)c(OC4OC(COC5OC(C)C(O)C(O)C5O)C(O)C(O)C4O)c(OC)c(O)c3c2=O)cc(C)c1O (stereo not given)
38 µM

Please answer likewise for `Cc1oc2c(C)c3oc(=O)cc(C)c3cc2c1CN`
> 100 µM

Please answer likewise for `CC(C)(C)n1cc(-c2ccnc(NCCNS(=O)(=O)c3cccc4ccccc34)c2)c(-c2cccc(F)c2)n1`
57.3 µM

* * *

test system: MDA-MB-435
Permitted responses: yes (active), no (inactive)

Identify the outcome logged in this assay for the compound shown: `C=C1C(=O)O[C@H]2[C@H]1CC(=O)/C(C)=C\CC[C@@]1(C)O[C@@H]21`
no

Please answer likewise for `COc1ccc(-c2nn(-c3cccc(NC(=O)Nc4cccc(C(F)(F)F)c4)c3)cc2-c2ccncc2)cc1Cl`
no

Please answer likewise for `Cc1ccccc1NC(=O)c1sc2nc3c(cc2c1N)C(=O)CCC3`
yes

Please answer likewise for `O=C1C(=O)c2c(nc3ncccn23)-c2ccccc21`
yes

Please answer likewise for COC1CCC(n2c([C@@H]3CCCC(=O)N3c3ccc(F)c(F)c3)nc3cc(-c4c(C)noc4C)ccc32)CC1 (some centres not stated)
no

Please answer likewise for `CN(C)CCCC(=O)Nc1ccc(Cn2nnc3c2C(=O)c2nnn(Cc4ccc(NC(=O)CCCN(C)C)cc4)c2C3=O)cc1`
no

Please answer likewise for CC12CCC(O)CC1CCC1C2CCC2(C)C(C3=CC(=O)OC3)CCC12 (configuration not stated)
no

Please answer likewise for `COc1ccc(-c2[nH]ncc2-c2cc(OC)c(OC)c(OC)c2)cc1`
yes

Please answer likewise for `CCCCC#Cc1cccc(=O)o1`
no

Please answer likewise for `COc1ccc2c(c1)C(=O)c1c-2n(CCCCl)c(=O)c2cc(N(C)C)ccc12`
no

Please answer likewise for `COc1ccc2sc3c(NCCCNCCO)nc4ccccc4c3c(=O)c2c1`
no

Please answer likewise for `COc1cc2c3c(n(C)c(=O)c2cc1OC)-c1cc2c(cc1/C3=C\[C@@H](N)CCCCN)OCO2`
no

* * *

test system: T-47D breast; assay: NCI tumour cell line growth inhibition, 48 h
property.name: TGI (µM)
Numbers only here, please. The scale is µM.

What value of TGI has been reported for the following compound? CCOC(=O)C1=CN(C(=O)c2ccccc2)CCC1Cc1ccccc1 (stereo not given)
72.8

Please answer likewise for Nc1nc(Nc2ccc3c(c2)CCC(N2CCCC2)CC3)nn1-c1cc2c(nn1)-c1ccccc1CCC2 (stereo not given)
3.95

Please answer likewise for `O=[N+]([O-])c1ccc(-[n+]2ccc3ccccc3c2)c([N+](=O)[O-])c1`
4.35

Please answer likewise for `N#CI1OC(C(F)(F)F)(C(F)(F)F)c2ccccc21`
49.3

Please answer likewise for `CCOC(=O)/C=C(/C(=O)OCC)n1ccc(=O)[nH]c1=O`
16.6

Please answer likewise for `Cc1nc2ccc(NCCN(C)C)c3c(=O)c4cc(O)ccc4n1c23`
14.8

Please answer likewise for `CN(/N=C/c1ccc(Cl)c(Cl)c1)C1=NCCN1`
90.8

Please answer likewise for `Nc1c(O)c(S(=O)(=O)O)c(O)c2c1C(=O)c1ccccc1C2=O`
7.37

Please answer likewise for `O=C(Nc1ccccc1F)c1ccc(NC2=C(Cl)C(=O)N(Cc3ccccc3)C2=O)cc1`
8.01

Please answer likewise for `COc1ccc(-c2nn(-c3cccc(NC(=O)Nc4cccc(C(F)(F)F)c4)c3)cc2-c2ccncc2)cc1Cl`
7.69

* * *

test system: COLO 205 colon; assay: NCI tumour cell line growth inhibition, 48 h
Give TGI for every item shown.
Numbers only here, please. The scale is µM.

What value of TGI has been reported for the following compound? NC(=S)N/N=C(\C(=O)Nc1ccc(Cl)c(Cl)c1)C1=NN(c2ccccc2)C(c2cccc([N+](=O)[O-])c2)CC1=O (centres undefined)
36.3

Please answer likewise for `Cn1cnc([N+](=O)[O-])c1Sc1nnc(C(F)(F)F)n1C`
28.8

Please answer likewise for `Cn1c(=O)c2[nH]c(-n3nc(-c4ccccc4)cc3N)nc2n(C)c1=O`
88.7

Please answer likewise for `Clc1ccc(-c2cn(-c3ccccc3)c(-c3ccccc3)n2)c(Cl)c1`
3.03

Please answer likewise for CC(=O)OC1C(O)C(C)OC(OC(=O)C2CCC3C(C2)OC2(CC(OC(=O)/C=C/c4ccccc4)C(C)CO2)C32CO2)C1OC1OC(C)C(O)C(O)C1O (centres undefined)
0.0569

* * *

system: K-562 leukemia; experiment: NCI tumour cell line growth inhibition, 48 h
property.name: TGI (µM)
Numbers only here, please. The scale is µM.

Recorded TGI for `Nc1c(O)c(S(=O)(=O)O)c(O)c2c1C(=O)c1ccccc1C2=O` with K-562 leukemia, please?
13.9

Please answer likewise for `CC1(C)CC[C@]2(C(=O)O)CC[C@]3(C)[C@H](CC[C@@H]4[C@@]5(C)CCC(=O)C(C)(C)[C@@H]5CC[C@]43C)[C@H]2[C@H]1OC(=O)C(F)(F)F`
20.9
